protocol-details: BSK_CASM3C_SRB: Viability Assessment in the BioMAP Diversity Plus: CASM3C Assay (AID 2283050);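 note: total protein by SRB staining as cytotoxicity measure in parallel cultures; cells exposed to compound for 24 h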
setup-conditions: primary human coronary artery smooth muscle cells
The source made the active and inactive calls. Rule for the calls: active = hit-call score of the fitted dose curve at least 0.9, where 1 is the maximum; inactive = score below 0.9.
Reply using exactly one outcome from TRUE = active, FALSE = inactive

smiles-str | class-label
ClC(Cl)=C(c1ccc(Cl)cc1)c1ccc(Cl)cc1 | FALSE
O=C(NC(=O)c1cc(F)c(F)cc1Cl)Nc1cc(F)ccc1N1CCC(C(=O)O)CC1 | FALSE
Nc1ccc(-c2ccc(N)cc2)cc1 | FALSE

Could you check what this test reported for `O=S(=O)(O)C(F)(F)C(F)(F)C(F)(F)C(F)(F)C(F)(F)C(F)(F)F` ?
FALSE

What outcome does the record of this test show for `C=CC(=O)NCNC(=O)C=C` ?
FALSE

I would be grateful if you could indicate the recorded call for `CCCCCCCCCC[N+](C)(C)CCCCCCCCCC` .
TRUE
